System: SN12C renal
Experiment: NCI tumour cell line growth inhibition, 48 h
Measured quantity: TGI

QUERY: Return reported TGI for target or system SN12C renal, item Nc1nc(N)c2nc(CNc3ccc(C(=O)NC(CC(=O)O)C(=O)O)cc3)cnc2n1 (stereo not given) .
RESULT: > 100 µM

QUERY: Return reported TGI for target or system SN12C renal, item COc1cc(NC(C)CCCN)c2ncccc2c1 (stereo not given) .
RESULT: > 100 µM

QUERY: Return reported TGI for target or system SN12C renal, item CCCc1cc(=O)[nH]c(-n2nc(C)cc2C)n1 .
RESULT: > 100 µM

QUERY: Return reported TGI for target or system SN12C renal, item CCOC(=O)C(NC(=O)c1ccco1)(Nc1nc2ccc(OCC)cc2s1)C(F)(F)F (stereo not given) .
RESULT: > 100 µM

QUERY: Return reported TGI for target or system SN12C renal, item Cc1ccccc1C(=O)N/N=C/c1ccc(Sc2nccn2C)c([N+](=O)[O-])c1 .
RESULT: > 100 µM

QUERY: Return reported TGI for target or system SN12C renal, item Cc1cc(Cl)ccc1Nc1nc(C(F)(F)F)ccc1C(=O)N/N=C/c1ccc(Cl)cc1 .
RESULT: 9 µM

QUERY: Return reported TGI for target or system SN12C renal, item Cc1cccc(CP(Cc2cccc(C)c2)CC2(Cp3c4ccccc4c4ccccc43)COC2)c1 .
RESULT: > 31.6 µM

QUERY: Return reported TGI for target or system SN12C renal, item CCCCCCCCCCCCCCCCOCC(CC(F)(F)P(=O)(OCC)OCC)OC(C)=O (stereo not given) .
RESULT: 44.5 µM

QUERY: Return reported TGI for target or system SN12C renal, item CC(C)C1=CC23CCC4C(C)(C(=O)O)CCCC4(C)C2CC1C1C(=O)N(c2ccccc2N2C(=O)C4C5CC6C7(C)CCCC(C)(C(=O)O)C7CCC6(C=C5C(C)C)C4C2=O)C(=O)C13 (stereo not given) .
RESULT: 24.8 µM

QUERY: Return reported TGI for target or system SN12C renal, item O=C(NC(=O)c1cn(CCN(CCO)C(=O)NCCCCCCNC(=O)N(CCO)CCn2cc(C(=O)NC(=O)OCc3ccccc3)c(=O)[nH]c2=O)c(=O)[nH]c1=O)OCc1ccccc1 .
RESULT: > 100 µM
